So I've got a bunch of compounds here, and I need their DC50 values.
Molecular target: KRAS G12D (Homo sapiens, UniProt P01116, G12D)
Construct: AsPc-1-KRAS (G12D)-HiBit-KI cell (Pharmaron); host or cells: AsPc-1-KRAS (G12D)-HiBit-KI cells (HiBiT knock-in at the endogenous KRAS locus)
Sequence (P01116 1-188 isoform P01116-2 G12D): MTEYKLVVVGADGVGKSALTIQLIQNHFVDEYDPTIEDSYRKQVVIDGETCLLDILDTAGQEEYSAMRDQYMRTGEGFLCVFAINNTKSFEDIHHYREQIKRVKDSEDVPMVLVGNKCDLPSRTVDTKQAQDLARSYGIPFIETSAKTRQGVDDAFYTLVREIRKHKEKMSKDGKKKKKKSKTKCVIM
Test: KRAS G12D HiBit assay
Assay type: cell-based
Conditions: AsPc-1-KRAS (G12D)-HiBit-KI cell, compound treatment for 24 hours, absolute DC50; class symbols
Procedure: Day 1. […] Allowed cells to reach approximately 80% confluence before splitting. Rinsed cultivated cells in T-75 flasks with 5 mL PBS (Solarbio, P1020-500). […] Inactivated trypsin by adding excessive serum containing medium. Harvested the cells from flask into cell culture medium and counted the cell number. Day 2. Test compounds were dissolved at 0.3 mM in DMSO (Solarbio, D8371) as stock solution. […] The inhibition activity was calculated using the following formula: […]

Request: Tell me its DC50 on KRAS G12D (Homo sapiens, UniProt P01116, G12D): CCc1c(F)ccc2cc(O)cc(-c3ncc4c(N5CCC[C@@](C)(O)C5)nc(OC[C@@]56CCCN5[C@H](COC(=O)N5CC7(CC(CN8CCC(c9ccc%10c(c9)n(C)c(=O)n%10C9CCC(=O)NC9=O)CC8)C7)C5)CC6)nc4c3F)c12 (stereo partly shown)
Response: < 100 nM

Request: Tell me its DC50 on KRAS G12D (Homo sapiens, UniProt P01116, G12D): C#Cc1c(F)ccc2cc(O)cc(-c3ccc4c(N5CCC[C@@](C)(O)C5)nc(OCC5(CN6CCC(CN7CCN(c8ccc9c(c8)n(C)c(=O)n9C8CCC(=O)NC8=O)CC7)CC6)CC5)nc4c3F)c12 (stereo partly shown)
Response: < 100 nM

Request: Tell me its DC50 on KRAS G12D (Homo sapiens, UniProt P01116, G12D): CCc1c(F)ccc2cc(O)cc(-c3ncc4c(N5CCC[C@](C)(N)C5)nc(OC[C@@]56CCCN5[C@H](COC(=O)N5CCC7(CC5)CC(N5CCC(c8ccc9c(c8)n(C)c(=O)n9C8CCC(=O)NC8=O)CC5)C7)CC6)nc4c3F)c12 (stereo partly shown)
Response: < 100 nM

Request: Tell me its DC50 on KRAS G12D (Homo sapiens, UniProt P01116, G12D): C#Cc1c(F)ccc2cccc(-c3ncc4c(N5CCC[C@@](C)(O)C5)nc(OC[C@@]56CCCN5[C@H](COC(=O)N5CCC(CN7CCC(c8cccc9c8n(C)c(=O)n9C8CCC(=O)NC8=O)CC7)CC5)CC6)nc4c3F)c12 (stereo partly shown)
Response: 100 to 300 nM

====

Target: KRAS (Homo sapiens)
Construct: endogenous in cells; host or cells: KE39 (KRAS amplified) cells
Sequence (P01116 1-188 isoform P01116-2): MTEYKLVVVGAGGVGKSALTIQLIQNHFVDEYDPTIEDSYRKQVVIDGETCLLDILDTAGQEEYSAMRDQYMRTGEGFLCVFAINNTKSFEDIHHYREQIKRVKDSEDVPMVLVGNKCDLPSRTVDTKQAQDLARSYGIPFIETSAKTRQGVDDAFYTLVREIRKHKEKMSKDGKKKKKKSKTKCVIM
Experiment: KRASamp MSD assay
Type: cell-based
Conditions: KE39 (KRAS amplified) cells, treated with test compounds for 24 hr, MSD readout of KRAS degradation
So I've got a bunch of compounds here, and I need their DC50 values.

Request: For C#Cc1c(F)ccc2cc(O)cc(-c3ncc4c(N5CCC[C@@](C)(O)C5)nc(OC[C@@]56CCCN5[C@H](COC(=O)N5CCC(OCC#Cc7cccc8c7n(C)c(=O)n8C7CCC(=O)NC7=O)CC5)CC6)nc4c3F)c12 (some centres unmarked) [Compound 372] , write its DC50.
Response: 1 to 10 nM

Request: For C#Cc1c(F)ccc2cc(O)cc(-c3ncc4c(N5CCC[C@@](C)(O)C5)nc(OC[C@@]56CCCN5[C@H](COC(=O)N5CCC(OCCC#Cc7ccc8c(c7)n(C)c(=O)n8C7CCC(=O)NC7=O)CC5)CC6)nc4c3F)c12 (some centres unmarked) [Compound 369] , write its DC50.
Response: 1 to 10 nM
